- assaySystem: recombinant human GR (Homo sapiens)
- Sequence (P04150 whole entry): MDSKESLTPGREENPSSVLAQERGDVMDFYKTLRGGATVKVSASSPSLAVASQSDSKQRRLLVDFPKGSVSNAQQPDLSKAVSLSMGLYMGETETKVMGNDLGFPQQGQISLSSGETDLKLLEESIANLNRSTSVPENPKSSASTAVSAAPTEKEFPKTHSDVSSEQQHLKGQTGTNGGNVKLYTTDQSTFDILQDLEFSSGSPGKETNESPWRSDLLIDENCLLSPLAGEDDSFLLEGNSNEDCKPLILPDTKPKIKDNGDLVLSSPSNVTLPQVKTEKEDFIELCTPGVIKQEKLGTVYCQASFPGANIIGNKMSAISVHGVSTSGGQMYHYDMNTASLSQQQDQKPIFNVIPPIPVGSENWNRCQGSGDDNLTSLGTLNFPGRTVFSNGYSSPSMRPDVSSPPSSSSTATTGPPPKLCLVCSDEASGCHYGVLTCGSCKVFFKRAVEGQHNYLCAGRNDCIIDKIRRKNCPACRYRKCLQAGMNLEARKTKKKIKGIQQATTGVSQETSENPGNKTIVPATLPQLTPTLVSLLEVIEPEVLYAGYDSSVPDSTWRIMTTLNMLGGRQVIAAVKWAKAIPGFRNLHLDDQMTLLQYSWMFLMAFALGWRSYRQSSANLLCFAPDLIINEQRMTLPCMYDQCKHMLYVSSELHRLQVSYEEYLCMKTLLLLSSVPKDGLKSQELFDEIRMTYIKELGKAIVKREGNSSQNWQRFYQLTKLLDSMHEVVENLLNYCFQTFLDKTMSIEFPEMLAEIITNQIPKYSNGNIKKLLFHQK
- assay: Human Glucocorticoid Receptor (GR) Assay, fluorescence polarization (GRhuFL_FP_v2)
- conditionDetails: GS Red tracer, 2 hours at room temperature, 100% control 10 μM Dexamethasone
Task for the reader: assign each of the following compounds its reported IC50.
Field: numeric (nM). Do not append units.

**Query** Value lookup for IC50; key = C[C@H](NS(=O)(=O)C1CC1)[C@H](Oc1ccc2c(cnn2-c2ccc(F)cc2)c1)c1ccc([S+](C)[O-])cc1 (some centres unmarked) [Example 31]
**Result** 6.4

**Query** Value lookup for IC50; key = C[C@H](NS(=O)(=O)CC1CCCCC1)[C@H](Oc1ccc2c(cnn2-c2ccc(F)cc2)c1)c1ccccc1 [Example 23]
**Result** 9.5

**Query** Value lookup for IC50; key = CC(C)n1ncc2cc(O[C@H](c3ccccc3)[C@H](C)NS(=O)(=O)C3CC3)ccc21 [Example 33]
**Result** 170

**Query** Value lookup for IC50; key = CCCC(C)S(=O)(=O)N[C@@H](C)[C@H](Oc1ccc2c(cnn2-c2ccc(F)cc2)c1)c1ccccc1 (some centres unmarked) [Example 13]
**Result** 5

**Query** Value lookup for IC50; key = CC(C)n1ncc2cc(O[C@H](c3ccccc3)[C@H](C)NS(C)(=O)=O)ccc21 [Example 30]
**Result** 330

**Query** Value lookup for IC50; key = C[C@H](NS(=O)(=O)CC1CCCC1)[C@H](Oc1ccc2c(cnn2-c2ccc(F)cc2)c1)c1ccccc1 [Example 20]
**Result** 8.7

**Query** Value lookup for IC50; key = C[C@H](NS(C)(=O)=O)[C@H](Sc1ccc2c(cnn2-c2ccc(F)cc2)c1)c1ccccc1 [Example 38]
**Result** 4.8

**Query** Value lookup for IC50; key = C[C@H](NS(=O)(=O)C1CC1)[C@H](Oc1ccc2c(cnn2C2CCCC2)c1)c1ccccc1 [Example 32]
**Result** 7.6

**Query** Value lookup for IC50; key = C[C@H](NS(=O)(=O)C1CC1)[C@H](Oc1ccc2c(cnn2-c2ccc(F)nc2)c1)c1ccccc1 [Example 4]
**Result** 4.9

**Query** Value lookup for IC50; key = O=S(=O)(NC[C@H](Sc1ccc2c(cnn2-c2ccc(F)cc2)c1)c1ccccc1)C1CC1 [Example 37]
**Result** 17

**Query** Value lookup for IC50; key = COc1ccc(OCCCS(=O)(=O)N[C@@H](C)[C@H](Oc2ccc3c(cnn3-c3ccc(F)cc3)c2)c2ccccc2)cc1 [Example 11]
**Result** 6.9

**Query** Value lookup for IC50; key = CCCCS(=O)(=O)N[C@@H](C)[C@H](Oc1ccc2c(cnn2-c2ccc(F)cc2)c1)c1ccccc1 [Example 15]
**Result** 5.4

**Query** Value lookup for IC50; key = C[C@H](NS(=O)(=O)C1CC1)[C@H](Oc1ccc2c(cnn2-c2ccc(F)cc2)c1)c1cnc2ccccc2c1 [Example 42]
**Result** 3.6

**Query** Value lookup for IC50; key = CCCCCCS(=O)(=O)N[C@@H](C)[C@H](Oc1ccc2c(cnn2-c2ccc(F)cc2)c1)c1ccccc1 [Example 24]
**Result** 7.6

**Query** Value lookup for IC50; key = COC(=O)CCS(=O)(=O)N[C@@H](C)[C@H](Oc1ccc2c(cnn2-c2ccc(F)cc2)c1)c1ccccc1 [Example 19]
**Result** 5.1

**Query** Value lookup for IC50; key = C[C@H](NS(=O)(=O)CC(F)(F)F)[C@H](Oc1ccc2c(cnn2-c2ccc(F)cc2)c1)c1ccccc1 [Example 22]
**Result** 2.7

**Query** Value lookup for IC50; key = C[C@H](NS(=O)(=O)c1cccnc1)[C@H](Oc1ccc2c(cnn2-c2ccc(F)cc2)c1)c1ccccc1 [Example 25]
**Result** 7

**Query** Value lookup for IC50; key = CCS(=O)(=O)N[C@@H](C)[C@H](Oc1ccc2c(cnn2-c2ccc(F)cc2)c1)c1ccccc1 [Example 12]
**Result** 2.8

**Query** Value lookup for IC50; key = C[C@H](NS(=O)(=O)N(C)C)[C@H](Oc1ccc2c(cnn2-c2ccc(F)cc2)c1)c1ccccc1 [Example 8]
**Result** 4.6

**Query** Value lookup for IC50; key = C[C@H](NS(=O)(=O)C1CC1)[C@H](Oc1cc2cnn(-c3ccc(F)cc3)c2cc1Cl)c1ccc(F)cc1 (racemic) [Example 35]
**Result** 6.2
